Could you please report measured hCD71:HSA for the items listed next?
target: T1, recombinant biotinylated CD71 extracellular domain (Sino Biologics) with an N-terminal 6His tag (human, UniProt P02786 89-760, biotinylated (sites not given)); assay: screening ELISA, ratio
T1 construct: extracellular domain; also called hCD71; huCD71
T1 sequence (P02786 other isoform, or with tags, fused parts or gaps): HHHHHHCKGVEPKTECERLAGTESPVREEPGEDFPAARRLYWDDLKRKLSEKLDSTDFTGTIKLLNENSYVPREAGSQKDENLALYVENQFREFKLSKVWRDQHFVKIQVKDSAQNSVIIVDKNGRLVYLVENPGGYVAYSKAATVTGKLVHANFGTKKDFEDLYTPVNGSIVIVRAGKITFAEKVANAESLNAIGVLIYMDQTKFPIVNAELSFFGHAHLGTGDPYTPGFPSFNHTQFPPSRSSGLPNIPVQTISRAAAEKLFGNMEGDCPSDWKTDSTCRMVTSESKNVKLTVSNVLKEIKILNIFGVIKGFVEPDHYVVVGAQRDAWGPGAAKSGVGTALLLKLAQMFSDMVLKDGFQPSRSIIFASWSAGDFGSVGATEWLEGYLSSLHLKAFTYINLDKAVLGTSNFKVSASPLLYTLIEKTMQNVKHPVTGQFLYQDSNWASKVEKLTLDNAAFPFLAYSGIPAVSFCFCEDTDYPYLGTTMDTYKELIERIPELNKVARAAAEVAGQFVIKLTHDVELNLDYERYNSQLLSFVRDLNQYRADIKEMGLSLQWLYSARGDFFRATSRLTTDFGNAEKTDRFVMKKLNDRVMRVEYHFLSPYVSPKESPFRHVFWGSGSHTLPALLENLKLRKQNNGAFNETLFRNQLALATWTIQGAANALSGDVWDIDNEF
Give bare numbers.

SEQ ID NO 308 (designed binder, FN3 domain) MLPAPKNLVVSEVTEDSARLSWQGVARAFDSFLITYREQIFAGEVIVLTVPGSERSYDLTGLKPGTEYPVWIQGVKGGSPSAPLSAISTT    50

Item under review: SEQ ID NO 153 (designed binder, FN3 domain) MLPAPKNLVVSRVTEDSARLSWTAPDAALDSFRIAYTEYFVGGEAIVLTVPGSERSYDLTGLKPGTEYGVGIYGVKGGAGSSPLSAIFTT . Reported hCD71:HSA?
73
